# test system: T1, human IL4Rα/Fc (R and D Systems 604-4R) (human, UniProt P24394 26-231, limits assumed, biotin labelled in the assay of Example 5)
# T1 construct: bought protein; also called IL-4Rα/Fc (R&D systems Cat. No. 604-4R-050); not shown: Fc part of the bought fusion
# T1 sequence (looked up): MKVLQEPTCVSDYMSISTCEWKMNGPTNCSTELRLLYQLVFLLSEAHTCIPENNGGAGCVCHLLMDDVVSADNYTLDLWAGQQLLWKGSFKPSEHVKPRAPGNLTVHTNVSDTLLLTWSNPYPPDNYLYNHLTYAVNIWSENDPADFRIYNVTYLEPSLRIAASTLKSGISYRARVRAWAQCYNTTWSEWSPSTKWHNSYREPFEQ
# procedure details: HTRF receptor-ligand assay, purified scFv against biotinylated human IL4
measure: Ki (nM)
Answers are plain numbers, in nM.

{"binder": "Antibody 41 scFv (scFv, V domains shown, tested as purified scFv) VH: QVQLVQSGAEVRKPGASVKVSCKASGYAFTSYYMHWARQAPGQGLEWMGIINPSGGSTSYAQKFQGRVTMTRDTSTSTVYMELSSLRPEDTAVYYCARGKYWMYDWGKGTLVTVSG VL: QSVLTQPPSVSAAPGQKVTISCSGGSTNIGNSYVSWYQRLPGTAPKLLIYDNNKRPPGIPDRFSGSKSGTSATLAITGLQTGDEADYYCGTWDTSTVWEWPFGTGTKLTVL", "measurement units": "nM", "result value": 0.053}
{"binder": "Antibody 8 scFv (scFv, V domains shown, tested as purified scFv) VH: QVQLVQSGAEVKKPGASVKVSCKASGYAFTSYYMHWARQAPGQGLEWMGIINPSGGSTSYAQKFQGRVTMTRDTSTSTVYMELSSLRSEDTAVYYCARGKWWWQYWGKGTLVTVSS VL: QSVLTQPPSVSAAPGQKVTISCSGGSSNIGNSYVSWYQQLPGTAPKLLIYDNNKRPSGIPDRFSGSKSGTSATLAITGLQTGDEADYYCGTWDTSTTYHPIFGTGTKLTVL", "measurement units": "nM", "result value": 0.4}

For the next question, use this binder.
GET /value?item= Antibody 19 scFv (scFv, V domains shown, tested as purified scFv) VH: QVQLVQSGAEVKKPGASVKVSCKASGYAFTSYYMHWARQAPGQGLEWMGIINPSGGSTSYAQKFQGRVTMTRDTSTSTVYMELSSLRSEDTAVYYCARGKWWWQHWGKGTLVTVSS VL: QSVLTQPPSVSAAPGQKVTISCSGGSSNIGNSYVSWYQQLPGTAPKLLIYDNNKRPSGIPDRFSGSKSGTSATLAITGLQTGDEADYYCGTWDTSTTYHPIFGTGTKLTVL &field=Ki returns 0.8
